target: Cbl-b (Homo sapiens (Human)); assay: Cbl-b LCK Ub TR-FRET assay (Cbl-b Lck HTRF); assay type: biochemical; details: Cbl-b LCK Ub TR-FRET
Entries and their pIC50
Schema: pIC50 number; meaning minus log10 of the concentration expressed in molar units.

For orientation, consider the following solved cases.
molecule="CCNc1cc(C2(c3nncn3C)CC(F)(F)C2)cc(N2Cc3c(cc(CNC4(C)CCC4)cc3C(F)(F)F)C2=O)n1 [Compound 17]" endpoint_value=8.26
molecule="Cn1cnnc1[C@@H](c1cccc(N2Cc3c(cc(CNC4(C)CCC4)cc3C(F)(F)F)C2=O)c1)C1CC(=O)C1 (single isomer, unassigned)" endpoint_value=6.44
molecule="CC(C)[C@H]1CN(C)CCN1Cc1cc2c(c(C(F)(F)F)c1)CN(c1cc([C@]3(c4nncn4C)C[C@H](C)C3)cc(OC3CCCC3)n1)C2=O (single isomer, unassigned)" endpoint_value=7.66
molecule="CCNc1cc(C2(c3nncn3C)CC(F)(F)C2)cc(N2Cc3c(cc(CNC4(C)CCC4)cc3C(F)(F)F)C2=O)n1 [Compound 62]" endpoint_value=8.26
molecule=Cn1cnnc1[C@]1(c2cccc(N3Cc4c(cc(CNC5(C)CCC5)cc4C(F)(F)F)C3=O)c2)C[C@]2(CCCO2)C1 endpoint_value=6.96

Give a short answer stating reported pIC50 for `CO[C@H]1C[C@](c2cc(C)cc(N3Cc4c(cc(CNC5(C)CCC5)cc4C(F)(F)F)C3=O)c2)(c2nncn2C)C1` .
6.72

Give a short answer stating reported pIC50 for `CC(C)[C@@](O)(c1cccc(N2Cc3c(cc(CNC4(C)CCC4)cc3C(F)(F)F)C2=O)c1)c1nncn1C` .
5.28

###

Heads up, these compounds all have pKd values measured for Human Cbl-b (residues 40-426) (Homo sapiens (Human)).
Schema: pKd number; meaning minus log10 of the concentration expressed in molar units.

compound=CO[C@H]1C[C@@](c2cccc(N3Cc4c(cccc4C(F)(F)F)C3=O)c2)(c2nncn2C)C1 metric_name=pKd endpoint_value=5.28
compound="CC(C)[C@H]1CN(C)CCN1Cc1cc2c(c(C(F)F)c1)CN(c1cccc(C3(c4nncn4C)CC4(COC4)C3)c1)C2=O.O=CO.O=CO [Compound 198, formate]" metric_name=pKd endpoint_value=7.54
compound="COC[C@H]1CC1(c1cccc(N2Cc3c(cc(CNC4(C)CCC4)cc3C(F)(F)F)C2=O)c1)c1nncn1C (single isomer, unassigned)" metric_name=pKd endpoint_value=6.04

Using Human Cbl-b (residues 40-426) (Homo sapiens (Human)) as the test system, report measured pKd of Cn1cnnc1[C@H](c1cccc(N2Cc3c(cc(CNC4(C)CCC4)cc3C(F)(F)F)C2=O)c1)[C@H]1C[C@@H](C)C1 (single isomer, unassigned) .
6.62

Using Human Cbl-b (residues 40-426) (Homo sapiens (Human)) as the test system, report measured pKd of Cn1cnnc1[C@H](c1cccc(N2Cc3c(cc(CNC4(C)CCC4)cc3C(F)(F)F)C2=O)c1)C1CCOCC1.O=CO (single isomer, unassigned) [Compound 291, formate] .
7.21

Using Human Cbl-b (residues 40-426) (Homo sapiens (Human)) as the test system, report measured pKd of `Cn1cnnc1[C@@H](c1cccc(N2Cc3c(cc(CNC4(C)CCC4)cc3C(F)(F)F)C2=O)c1)C1CCC1` .
6.77

###

Entries and their fold-selectivity (Cbl-b over C-cbl)
molecular target: Cbl-b (Homo sapiens (Human), UniProt Q13191); experiment: Cbl-b LCK Ub TR-FRET assay (Cbl-b Lck HTRF); format: biochemical; conditions: ratio C-cbl Lck HTRF IC50 / Cbl-b Lck HTRF IC50
Sequence (Q13191 40-426): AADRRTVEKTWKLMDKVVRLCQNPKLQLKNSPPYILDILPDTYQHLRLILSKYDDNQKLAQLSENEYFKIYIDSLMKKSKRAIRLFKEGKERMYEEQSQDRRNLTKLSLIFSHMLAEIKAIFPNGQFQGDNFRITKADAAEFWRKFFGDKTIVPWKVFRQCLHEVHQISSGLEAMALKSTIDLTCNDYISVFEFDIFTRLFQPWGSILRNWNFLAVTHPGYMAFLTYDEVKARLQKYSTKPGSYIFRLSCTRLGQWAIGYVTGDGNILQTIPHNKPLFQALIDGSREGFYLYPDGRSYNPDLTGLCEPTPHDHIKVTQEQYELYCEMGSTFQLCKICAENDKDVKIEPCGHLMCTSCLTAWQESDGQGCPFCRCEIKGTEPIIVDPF

For orientation, consider the following solved cases.
molecule=Cn1cnnc1C1(c2cccc(N3Cc4c(cc(CNC5(C)CCC5)cc4C(F)(F)F)C3=O)c2)CN(CC(F)(F)F)C1 system_name="Cbl-b (Homo sapiens (Human), UniProt Q13191)" metric_name="fold-selectivity (Cbl-b over C-cbl)" endpoint_value=6.5x
molecule=Cn1cnnc1[C@H](c1cccc(N2Cc3c(cc(CNC4(C)CCC4)cc3C(F)(F)F)C2=O)c1)[C@H]1CCOC1 system_name="Cbl-b (Homo sapiens (Human), UniProt Q13191)" metric_name="fold-selectivity (Cbl-b over C-cbl)" endpoint_value=4.8x
molecule="Cn1cnnc1C1(c2cccc(N3Cc4c(cc([C@H](CO)NC5(C)CCC5)cc4C(F)(F)F)C3=O)c2)CCC1 (single isomer, unassigned)" system_name="Cbl-b (Homo sapiens (Human), UniProt Q13191)" metric_name="fold-selectivity (Cbl-b over C-cbl)" endpoint_value=4.4x

Give a short answer stating reported fold-selectivity (Cbl-b over C-cbl) for `Cn1cnnc1[C@@H](c1cccc(N2Cc3c(cc(CNC4(C)CCC4)cc3C(F)(F)F)C2=O)c1)C1CCC1` .
5.8x

Give a short answer stating reported fold-selectivity (Cbl-b over C-cbl) for CC(=O)C1CC([C@H](c2cccc(N3Cc4c(cc(CNC5(C)CCC5)cc4C(F)(F)F)C3=O)c2)c2nncn2C)C1 (single isomer, unassigned) [Compound 385] .
2.8x

###

target: Cbl-b (Homo sapiens (Human), UniProt Q13191); test: Cbl-b LCK Ub TR-FRET assay (Cbl-b Lck HTRF); assay type: biochemical; conditions: Cbl-b LCK Ub TR-FRET
Metric name: IC50 (nM)
Response body: numeric value in nM, unit text excluded.

For orientation, consider the following solved cases.
compound=Cc1cc(C2(c3nncn3C)CC(F)(F)C2)cc(N2Cc3c(cc(CNC4(C)CCC4)cc3C(F)(F)F)C2=O)n1 metric_name=IC50 endpoint_value=110
compound=COc1cc(N2Cc3c(cc(CNC4(C)CCC4)cc3C(F)(F)F)C2=O)cc([C@]2(c3nncn3C)C[C@@H](OC)C2)c1 metric_name=IC50 endpoint_value=24
compound=CC(C)O[C@H]1C[C@@](c2cccc(N3Cc4c(cc(CNC5(C)CCC5)cc4C(F)(F)F)C3=O)c2)(c2nncn2C)C1 metric_name=IC50 endpoint_value=64
compound=Cn1cnnc1[C@]1(c2cc(NC3CCCCC3)nc(N3Cc4c(cc(CNC5(C)CCC5)cc4C(F)(F)F)C3=O)c2)C[C@H](C)C1 metric_name=IC50 endpoint_value=38
compound=Cn1cnnc1[C@]1(c2cccc(N3Cc4c(cc(CNC5(C)CCC5)cc4C(F)(F)F)C3=O)c2)C[C@H](OC(F)F)C1 metric_name=IC50 endpoint_value=8.8
compound="CO[C@H]1C[C@](c2cc(NC3CCCC3)nc(N3Cc4c(cc(CNC5(C)CCC5)cc4C(F)(F)F)C3=O)c2)(c2nncn2C)C1 [Compound 70]" metric_name=IC50 endpoint_value=17

Using Cbl-b (Homo sapiens (Human), UniProt Q13191) as the test system, report measured IC50 of Cn1cnnc1C1(c2cccc(N3Cc4c(cc(CNC5(C)CCC5)cc4C(F)(F)F)C3=O)c2)CC(OC(F)(F)F)C1 (single isomer, unassigned) .
6.4

###

Heads up, these compounds all have Kd values measured for c-Cbl (residues 47-435) (Homo sapiens (Human)).
Response body: numeric value in nM, unit text excluded.

For orientation, consider the following solved cases.
compound=Cn1cnnc1[C@]1(c2cc(NC3CC(F)(F)C3)nc(N3Cc4c(cc(CNC5(C)CCC5)cc4C(F)(F)F)C3=O)c2)C[C@@H](C)C1 metric_name=Kd endpoint_value=11
compound="Cn1cnnc1[C@H](c1cccc(N2Cc3c(cc(CNC4(C)CCC4)cc3C(F)(F)F)C2=O)c1)C1CC(OC(F)F)C1 (single isomer, unassigned)" metric_name=Kd endpoint_value=1.7
compound="Cn1cnnc1[C@@H](c1cc(F)cc(N2Cc3c(cc(CNC4(C)CCC4)cc3C(F)(F)F)C2=O)c1)C1COC1 (single isomer, unassigned)" metric_name=Kd endpoint_value=59
compound=Cn1cnnc1C1(c2cccc(N3Cc4c(cc(CNC5(C)CCC5)cc4C(F)(F)F)C3=O)c2)CN(CC(F)(F)F)C1 metric_name=Kd endpoint_value=7600
compound="CO[C@H]1C[C@@](c2cc(NC3CCCC3)nc(N3Cc4c(cc(CNC5(C)CCC5)cc4C(F)(F)F)C3=O)c2)(c2nncn2C)C1 [Compound 8]" metric_name=Kd endpoint_value=23

Give a short answer stating reported Kd for `Cn1cnnc1C1(c2cccc(N3Cc4c(cc(CNC5(C)CCC5)cc4C(F)(F)F)C3=O)c2)CC2(CCC2)C1` .
20

Give a short answer stating reported Kd for `CO[C@H]1C[C@](c2cccc(N3Cc4c(cc(CNCC5CC5)cc4C(F)(F)F)C3=O)c2)(c2nncn2C)C1` .
63

Give a short answer stating reported Kd for `CO[C@]1(C)C[C@@](c2cccc(N3Cc4c(cc(CNC5(C)CCC5)cc4C(F)(F)F)C3=O)c2)(c2nncn2C)C1` .
13

Give a short answer stating reported Kd for `Cn1cnnc1[C@]1(c2cc(NC3CCCC3)cc(N3Cc4c(cc(CNC5(C)CCC5)cc4C(F)(F)F)C3=O)c2)C[C@H](C)C1` .
99

Give a short answer stating reported Kd for C[C@@H](NC1(C)CCC1)c1cc2c(c(C(F)F)c1)CN(c1cccc([C@H](c3nncn3C)C3COC3)c1)C2=O (single isomer, unassigned) .
82

Give a short answer stating reported Kd for `CO[C@H]1C[C@](c2cc(C3CC3)cc(N3Cc4c(cc(CNC5(C)CCC5)cc4C(F)(F)F)C3=O)c2)(c2nncn2C)C1` .
4.2

Give a short answer stating reported Kd for `C[C@@H]1C[C@](c2cccc(N3Cc4c(cc(CNC5(C)CCC5)cc4C(F)(F)F)C3=O)c2)(c2nncn2C)O1` .
130

Give a short answer stating reported Kd for `Cn1cnnc1[C@@H](c1cccc(N2Cc3c(cc(CNC4(C)CCC4)cc3C(F)(F)F)C2=O)c1)C1CCCC1` .
2500
